Every entry's value here was drawn from patent US12441730B2.

Target: Full-length (FL)-PRMT5-MEP50 enzyme complex (Homo sapiens, UniProt O14744)
Construct: Full-length (FL)-PRMT5-MEP50 enzyme complex (recombinant proteins from baculovirus-transfected Sf21 cells: FL-PRMT5; MW=73837 kDa and FL-MEP50; MW=38614); made in house; host or cells: baculovirus-transfected Sf21 cells
Sequence (O14744 whole entry): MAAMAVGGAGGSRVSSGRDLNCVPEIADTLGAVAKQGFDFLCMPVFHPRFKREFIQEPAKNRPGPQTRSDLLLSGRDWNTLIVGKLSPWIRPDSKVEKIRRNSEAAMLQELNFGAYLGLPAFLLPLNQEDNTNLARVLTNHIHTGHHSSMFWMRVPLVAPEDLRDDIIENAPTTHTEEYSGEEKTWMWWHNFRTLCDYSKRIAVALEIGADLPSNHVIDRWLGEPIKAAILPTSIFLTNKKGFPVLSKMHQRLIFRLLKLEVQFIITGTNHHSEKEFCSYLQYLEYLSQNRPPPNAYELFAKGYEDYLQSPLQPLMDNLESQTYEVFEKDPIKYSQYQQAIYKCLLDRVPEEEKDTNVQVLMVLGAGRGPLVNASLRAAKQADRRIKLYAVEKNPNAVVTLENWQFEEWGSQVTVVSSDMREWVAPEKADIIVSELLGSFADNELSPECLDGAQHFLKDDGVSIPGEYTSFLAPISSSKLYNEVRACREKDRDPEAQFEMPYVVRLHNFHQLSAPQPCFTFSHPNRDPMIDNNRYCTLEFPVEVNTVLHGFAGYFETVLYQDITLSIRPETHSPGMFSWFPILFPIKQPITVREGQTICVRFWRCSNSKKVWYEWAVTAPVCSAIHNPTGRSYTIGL
Sequence (Q9BQA1 whole entry partner): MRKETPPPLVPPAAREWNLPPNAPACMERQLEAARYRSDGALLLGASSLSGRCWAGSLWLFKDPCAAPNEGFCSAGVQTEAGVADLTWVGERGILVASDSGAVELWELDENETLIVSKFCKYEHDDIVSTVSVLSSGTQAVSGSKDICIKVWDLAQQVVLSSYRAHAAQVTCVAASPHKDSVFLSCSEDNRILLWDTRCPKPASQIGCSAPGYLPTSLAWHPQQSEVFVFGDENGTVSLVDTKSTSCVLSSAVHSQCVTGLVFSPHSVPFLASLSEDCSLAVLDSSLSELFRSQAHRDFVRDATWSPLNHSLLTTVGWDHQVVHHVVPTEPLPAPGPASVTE
Test: PRMT5-MEP50 Enzyme Methylation Assay (Version A)
Assay type: biochemical
Conditions: single EC50 = 4 parameter single site sigmoidal fit; EC50 1 = first value of 7 parameter biphasic fit; read-out: Enzyme Methylation Assay Version A (EC50 or EC50 1)
Mark each entry Yes if its EC50 sits below 6 nM, and No for all others.

Recorded results for 4 compounds are shown here.
INSERT INTO assay_data (compound, class_assignment) VALUES
  ('O=C(c1cn2cc(C(F)(F)F)cnc2n1)N1CC[C@]2(Cc3ccccc3CN2)[C@H](O)C1 [Example 169]', 'Yes'),
  ('COc1nc2nc(C(=O)N3CC[C@]4(Cc5ccccc5CN4)[C@H](O)C3)cn2cc1C [Example 128]', 'Yes'),
  ('Cc1ccc(C(=O)N2CC[C@]3(Cc4ccccc4CN3)[C@H](O)C2)c(C)n1 [Example 220]', 'No'),
  ('O=C(c1cn2c(n1)CCC(C(F)(F)F)C2)N1CC[C@]2(Cc3ccccc3CN2)[C@H](O)C1 (stereo partly shown) [Example 54]', 'No');

input: Is the reported EC50 for CNc1nc(C)ccc1C(=O)N1CC[C@]2(Cc3ccccc3CN2)[C@H](O)C1 [Example 198] strictly below 6 nM?
output: No

input: Consider the compound COC(C)c1cc(C(F)(F)F)cn2cc(C(=O)N3CC[C@]4(Cc5ccccc5CN4)[C@H](O)C3)nc12 (stereo partly shown) [Example 67] . Is its EC50 strictly less than 6 nM?
output: Yes

====

Test system: symmetric dimethylation of arginine (SDMA) of PRMT5 substrates in MCF-7 cells
Assay: PRMT5 Cell Target Engagement (TE) Assay
Format: cell-based
Conditions: 3 days treatment, SDMA high content imaging
OBSERVATION TYPE: EC50 (nM)
Answers are plain numbers, in nM.

INSERT INTO measurements (compound, unit_name, data_value) VALUES
  ('N#CCCC1CC(C(F)(F)F)Cn2cc(C(=O)N3CC[C@]4(Cc5ccccc5CN4)[C@H](O)C3)nc21 (single isomer, unassigned) [Example 164]', 'nM', 205),
  ('CC(O)c1cc(C(F)(F)F)cn2cc(C(=O)N3CC[C@]4(Cc5ccccc5CN4)[C@H](O)C3)nc12 (single isomer, unassigned) [Example 109]', 'nM', 8.28),
  ('COCC1CC(C)Cn2cc(C(=O)N3CC[C@]4(Cc5ccccc5CN4)[C@H](O)C3)nc21 (single isomer, unassigned) [Example 157]', 'nM', 275);

input: Give the reported EC50 for CC1CC(C(F)(F)F)Cn2cc(C(=O)N3CC[C@]4(Cc5ccccc5CN4)[C@H](O)C3)nc21 (single isomer, unassigned) [Example 166] (system: symmetric dimethylation of arginine (SDMA) of PRMT5 substrates in MCF-7 cells).
output: 33.7

====

Target: Full-length (FL)-PRMT5-MEP50 enzyme complex (Homo sapiens)
Construct: Full-length (FL)-PRMT5-MEP50 enzyme complex (recombinant proteins from baculovirus-transfected Sf21 cells: FL-PRMT5; MW=73837 kDa and FL-MEP50; MW=38614); made in house; host or cells: baculovirus-transfected Sf21 cells
Experiment: PRMT5-MEP50 Enzyme Methylation Assay (Version A)
Type: biochemical
Conditions: second value of 7 parameter biphasic fit; read-out: Enzyme Methylation Assay Version A (EC50 2)
Consider the following compounds; for each one, report its EC50.
Hi, when you answer, please include the unit after the number. Thanks!

Solved entries (count: 3):
INSERT INTO measurements (compound, data_value) VALUES
  ('Cn1c(=O)c(Br)cn2cc(C(=O)N3CC[C@]4(Cc5ccccc5CN4)[C@H](O)C3)nc12 (single isomer, unassigned)', '8510 nM'),
  ('CCN1CCNc2cc(C(=O)N3CC[C@]4(Cc5ccccc5CN4)[C@H](O)C3)ccc2C1=O', '684 nM'),
  ('O=C(c1cn2cc(Br)nc(OC3COC3)c2n1)N1CC[C@]2(Cc3ccccc3CN2)[C@H](O)C1', '159 nM');

Below is a list of compounds. For each, state its recorded EC50.
1. Cc1ccc(C(=O)N2CC[C@]3(Cc4ccccc4CN3)[C@H](O)C2)c(Br)n1
2. CN(C)C(=O)c1ccc2nc(C(=O)N3CC[C@]4(Cc5ccccc5CN4)[C@H](O)C3)cn2c1
3. O=C(c1cc2ncc(C3CC3)cn2n1)N1CC[C@]2(Cc3ccccc3CN2)[C@H](O)C1
4. O=C(c1cn2cc(Br)nc(OCC3CCCO3)c2n1)N1CC[C@]2(Cc3ccccc3CN2)[C@H](O)C1 (single isomer, unassigned) [Example 100]

output:
1: 16000 nM; 2: 1380 nM; 3: 240 nM; 4: 60.6 nM

====

Target: Full-length (FL)-PRMT5-MEP50 enzyme complex (Homo sapiens, UniProt O14744)
Construct: Full-length (FL)-PRMT5-MEP50 enzyme complex (recombinant proteins from baculovirus-transfected Sf21 cells: FL-PRMT5; MW=73837 kDa and FL-MEP50; MW=38614); made in house; host or cells: baculovirus-transfected Sf21 cells
Test: PRMT5-MEP50 Enzyme Methylation Assay (Version A)
Assay type: biochemical
Details: second value of 7 parameter biphasic fit; read-out: Enzyme Methylation Assay Version A (EC50 2)
Can you tell me EC50 for the items I'm about to list?
One number for each entry, in nM.

INSERT INTO measurements (molecule, data_value) VALUES
  ('O=C(c1cn2cc(C(F)(F)F)cnc2n1)N1CC[C@]2(Cc3ccccc3CN2)[C@H](O)C1', 427),
  ('O=C(c1cc2oc3ccccc3c2cc1O)N1CC[C@]2(Cc3ccccc3CN2)[C@H](O)C1', 1350),
  ('CC(O)c1cc(Br)cn2cc(C(=O)N3CC[C@]4(Cc5ccccc5CN4)[C@H](O)C3)nc12 (single isomer, unassigned) [Example 32]', 282);

Moving on to another molecule below.
input: GET /values?readout=EC50&system=Full-length (FL)-PRMT5-MEP50 enzyme complex (Homo sapiens, UniProt O14744)&item= O=C(c1cn2cc(Br)nc(OCC3CCCO3)c2n1)N1CC[C@]2(Cc3ccccc3CN2)[C@H](O)C1 (single isomer, unassigned) [Example 101]
output: 56.2

====

Tested on: symmetric dimethylation of arginine (SDMA) of PRMT5 substrates in MCF-7 cells
Test: PRMT5 Cell Target Engagement (TE) Assay
Format: cell-based
Details: 3 days treatment, SDMA high content imaging
Kindly state pEC50 for each of the entries shown.
Numbers only, as −log10 of the molar value.

// each compound listed below needs its pEC50
1. O=C(c1ccc(C(=O)N2C3CCC2COC3)cc1)N1CCC2(Cc3ccccc3CN2)C(O)C1 (single isomer, unassigned) [Example 149]
2. CN1CCC(Oc2nc(Br)cn3cc(C(=O)N4CC[C@]5(Cc6ccccc6CN5)[C@H](O)C4)nc23)C1=O (single isomer, unassigned)

output:
1. 5.01
2. 7.54

// for each compound below, give its pEC50
1. CC(=O)N1CCC(Nc2cc(C(=O)N3CCC4(Cc5ccccc5CN4)C(O)C3)ncn2)CC1 (single isomer, unassigned) [Example 91]
2. COC(C)c1cnc2nc(C(=O)N3CC[C@]4(Cc5ccccc5CN4)[C@H](O)C3)cn2c1 (single isomer, unassigned)
3. O=C(c1ccc(C(=O)N2C3CCC2COC3)cc1)N1CCC2(Cc3ccccc3CN2)C(O)C1 (single isomer, unassigned) [Example 151]

output:
1. 6.52
2. 6.91
3. 5.38

====

Target: Full-length (FL)-PRMT5-MEP50 enzyme complex (Homo sapiens, UniProt O14744)
Construct: Full-length (FL)-PRMT5-MEP50 enzyme complex (recombinant proteins from baculovirus-transfected Sf21 cells: FL-PRMT5; MW=73837 kDa and FL-MEP50; MW=38614); made in house; host or cells: baculovirus-transfected Sf21 cells
Experiment: PRMT5-MEP50 Enzyme Methylation Assay (Version A)
Format: biochemical
Conditions: second value of 7 parameter biphasic fit; read-out: Enzyme Methylation Assay Version A (EC50 2)
Assignment: determine reported pEC50 for the given molecules.
One number for each entry, as −log10 of the molar value.

INSERT INTO measurements (smiles_structure, data_value) VALUES
  ('CO[C@H](C)c1cc(CN2CCCC2)cn2cc(C(=O)N3CC[C@]4(Cc5ccccc5CN4)[C@H](O)C3)nc12', 6.19),
  ('CCOc1nc(Br)cn2cc(C(=O)N3CC[C@]4(Cc5ccccc5CN4)[C@H](O)C3)nc12', 6.74),
  ('COCc1cc(C)cn2cc(C(=O)N3CC[C@]4(Cc5ccccc5CN4)[C@H](O)C3)nc12', 6.47),
  ('Cc1ccnc2nc(C(=O)N3CC[C@]4(Cc5ccccc5CN4)[C@H](O)C3)cn12', 5.62),
  ('Cc1c(C2CC2)cnc2nc(C(=O)N3CC[C@]4(Cc5ccccc5CN4)[C@H](O)C3)cn12', 5.01),
  ('Cc1cn2cc(C(=O)N3CC[C@]4(Cc5ccccc5CN4)[C@H](O)C3)nc2nc1C', 5.30),
  ('CNC(=O)c1cc(Br)cn2cc(C(=O)N3CC[C@]4(Cc5ccccc5CN4)[C@H](O)C3)nc12', 5.83);

Then this molecule:
input: Fill blank: measured pEC50 of the molecule Cc1ccc(C(=O)N2CC[C@]3(Cc4ccccc4CN3)[C@H](O)C2)c(C2CC2)n1 is ____.
output: 5.14
